- System: U-251
- assay remarks: NCI tumour cell line growth inhibition, 48 h
Active and inactive are the calls of the source. Cut-off read from the data, not from the text of the source: active = GI50 up to about 1.1 µM and inactive = higher.
Log the outcome using a class from active, inactive

Example results:
O=S(=O)(/N=S(/Nc1ccccc1)C(Cl)Cl)c1ccccc1 (configuration not stated) = inactive
CCCCCCCCCCNC(=O)CCC(NC(=O)c1ccc(N(C)Cc2cnc3nc(N)nc(N)c3n2)cc1)C(=O)NCCCCCCCCCC (configuration not stated) = inactive
O=C(O)C1=CN(c2ccncc2)C(c2ccco2)=CC1c1ccccc1[N+](=O)[O-] (configuration not stated) = inactive
O=C(NNC(=S)Nc1ccccc1)c1cc(-c2ccccc2)nc2ccccc12 = inactive

Look up the recorded call for C[C@@]12C[C@@H](c3ccccc3O1)N1CCCSC1=N2 in this test.
inactive
